# Tested on: L1210
# measurement.notes: Cytotoxicity against mouse L1210 cells
# Assay type: functional, cell-based
Note to self: use satisfied only for IC50 readings below 0.06 nM; a reading exactly at 0.06 nM still gets not satisfied.

QUERY: Record COC(=O)c1cc2c3c(cc(O)c2[nH]1)N(C(=O)c1cc2cc(C)ccc2[nH]1)C[C@H]3CCl : is its IC50 strictly below 0.06 nM?
RESULT: not satisfied

QUERY: Please let me know if COC(=O)c1cc2c([nH]1)C(=O)C=C1N(C(=O)c3cc4cc(C)ccc4[nH]3)C[C@H]3C[C@]123 shows IC50 below 0.06 nM.
RESULT: not satisfied

QUERY: Regarding COC(=O)c1cc2c([nH]1)C(=O)C=C1N(C(=O)c3cc4ccccc4[nH]3)C[C@H]3C[C@]123 , kindly confirm whether its IC50 is beneath 0.06 nM.
RESULT: not satisfied

QUERY: Below 0.06 nM on IC50? Entry COC(=O)c1cc2c([nH]1)C(=O)C=C1N(C(=O)c3cc4cc(NC(C)=O)ccc4[nH]3)C[C@H]3C[C@]123
RESULT: not satisfied

QUERY: Here's an entry: CNC(=O)c1ccc2[nH]c(C(=O)N3C[C@H]4C[C@@]45C3=CC(=O)c3[nH]c(C(=O)OC)cc35)cc2c1 . Is its IC50 below 0.06 nM?
RESULT: not satisfied

QUERY: Hello, I'm reviewing records and need to know if IC50 of COC(=O)c1cc2c3c(cc(O)c2[nH]1)N(C(=O)c1cc2cc(OC(F)(F)F)ccc2[nH]1)C[C@H]3CCl is below 0.06 nM. Could you check?
RESULT: not satisfied

QUERY: Determine if COC(=O)c1cc2c([nH]1)C(=O)C=C1N(C(=O)c3cc4cc(O)c(OC)cc4[nH]3)C[C@H]3C[C@]123 shows IC50 strictly lower than 0.06 nM.
RESULT: satisfied

QUERY: I wonder whether COC(=O)c1cc2c3c(cc(O)c2[nH]1)N(C(=O)c1cc2cc(NC(C)=O)ccc2[nH]1)C[C@H]3CCl has IC50 below 0.06 nM. Can you tell?
RESULT: not satisfied

QUERY: Does COC(=O)c1cc2c([nH]1)C(=O)C=C1N(C(=O)c3cc4cc(OC)c(OC)c(OC)c4[nH]3)C[C@H]3C[C@]123 have IC50 strictly under 0.06 nM?
RESULT: satisfied

###

# System: L1210
# measurement.notes: Cytotoxicity against mouse L1210 cells
# Format: functional, cell-based
measured.metric: IC50

// below: answered molecules
test.smiles: COC(=O)c1cc2c3c(cc(O)c2[nH]1)N(C(=O)c1cc2cc(S(C)(=O)=O)ccc2[nH]1)C[C@H]3CCl
IC50: 0.058 nM
//
test.smiles: COC(=O)c1cc2c([nH]1)C(=O)C=C1N(C(=O)c3cc4cc(OC(F)(F)F)ccc4[nH]3)C[C@H]3C[C@]123
IC50: 0.049 nM
//
test.smiles: COC(=O)c1cc2c([nH]1)C(=O)C=C1N(C(=O)c3cc4cc([N+](=O)[O-])ccc4[nH]3)C[C@H]3C[C@]123
IC50: 0.041 nM
//
test.smiles: COC(=O)c1cc2c3c(cc(O)c2[nH]1)N(C(=O)c1cc2cc(OC)ccc2[nH]1)C[C@H]3CCl
IC50: 0.021 nM

// moving on: another record for IC50
QUERY: // query IC50 value for entry COC(=O)c1cc2c3c(cc(O)c2[nH]1)N(C(=O)c1cc2cc(C(F)(F)F)ccc2[nH]1)C[C@H]3CCl
RESULT: 0.075 nM

###

# Tested on: L1210
# measurement.notes: Cytotoxicity against mouse L1210 cells
# Type: functional, cell-based
The compounds listed here are annotated with their log10(IC50).
Values are log10 of IC50 in nM.

// known answers, use as guide
test.smiles: COC(=O)c1cc2c([nH]1)C(=O)C=C1N(C(=O)c3cc4cc(C(C)=O)ccc4[nH]3)C[C@H]3C[C@]123
measured.metric: log10(IC50)
measured.value: -1.37

test.smiles: COC(=O)c1cc2c([nH]1)C(=O)C=C1N(C(=O)c3cc4cc(S(C)(=O)=O)ccc4[nH]3)C[C@H]3C[C@]123
measured.metric: log10(IC50)
measured.value: -1.24

test.smiles: COC(=O)c1cc2c3c(cc(O)c2[nH]1)N(C(=O)c1cc2cc(F)ccc2[nH]1)C[C@H]3CCl
measured.metric: log10(IC50)
measured.value: -1.10

QUERY: Recorded log10(IC50) of COC(=O)c1cc2c3c(cc(O)c2[nH]1)N(C(=O)c1cc2cc(C(C)=O)ccc2[nH]1)C[C@H]3CCl , please.
RESULT: -1.42

QUERY: Record request: log10(IC50) value, item COC(=O)c1cc2c([nH]1)C(=O)C=C1N(C(=O)c3cc4cc(C#N)ccc4[nH]3)C[C@H]3C[C@]123
RESULT: -2.15

QUERY: // query log10(IC50) value for entry CNC(=O)c1ccc2[nH]c(C(=O)N3C[C@@H](CCl)c4c3cc(O)c3[nH]c(C(=O)OC)cc43)cc2c1
RESULT: -1.21

###

# Test system: L1210
# measurement.notes: Cytotoxicity against mouse L1210 cells
# Format: functional, cell-based
// classify: if (IC50 < 0.05 nM) true (1) else false (0)

Recorded results for 3 compounds are shown here.
test.smiles: COC(=O)c1cc2c([nH]1)C(=O)C=C1N(C(=O)c3cc4cc(C(F)(F)F)ccc4[nH]3)C[C@H]3C[C@]123
target.entity: L1210
group.label: false (0)

test.smiles: COC(=O)c1cc2c3c(cc(O)c2[nH]1)N(C(=O)c1cc2ccccc2[nH]1)C[C@H]3CCl
target.entity: L1210
group.label: false (0)

test.smiles: COC(=O)c1cc2c3c(cc(O)c2[nH]1)N(C(=O)c1cc2cc(C#N)ccc2[nH]1)C[C@H]3CCl
target.entity: L1210
group.label: true (1)

QUERY: Quick check: does COC(=O)c1cc2c([nH]1)C(=O)C=C1N(C(=O)c3cc4cc(OC)ccc4[nH]3)C[C@H]3C[C@]123 have IC50 under 0.05 nM?
RESULT: true (1)

QUERY: Below 0.05 nM on IC50? Entry COC(=O)c1cc2c([nH]1)C(=O)C=C1N(C(=O)c3cc4cc(F)ccc4[nH]3)C[C@H]3C[C@]123
RESULT: false (0)

###

Recorded pIC50 by entry
# Tested on: L1210
# measurement.notes: Cytotoxicity against mouse L1210 cells
# Type: functional, cell-based
For clarity, pIC50 is expressed as the negative log10 of concentration in mol/L.

Below, 2 compounds whose answers are already recorded.
test.smiles: COC(=O)c1cc2c3c(cc(O)c2[nH]1)N(C(=O)c1cc2cc(O)ccc2[nH]1)C[C@H]3CCl
target.entity: L1210
pIC50: 10.30

test.smiles: COC(=O)c1cc2c([nH]1)C(=O)C=C1N(C(=O)c3cc4cc(O)ccc4[nH]3)C[C@H]3C[C@]123
target.entity: L1210
pIC50: 10.28

QUERY: Given the entry COC(=O)c1ccc2[nH]c(C(=O)N3C[C@H]4C[C@@]45C3=CC(=O)c3[nH]c(C(=O)OC)cc35)cc2c1 , what pIC50 was observed with L1210?
RESULT: 10.33

QUERY: Report pIC50 for COC(=O)c1cc2c([nH]1)C(=O)C=C1N(C(=O)c3cc4cc(OC)c(O)cc4[nH]3)C[C@H]3C[C@]123 tested on L1210.
RESULT: 11.15

QUERY: Form field: pIC50 recorded for COC(=O)c1ccc2[nH]c(C(=O)N3C[C@@H](CCl)c4c3cc(O)c3[nH]c(C(=O)OC)cc43)cc2c1 with L1210 (enter value)
RESULT: 10.32

Ref: ChEMBL document CHEMBL1158549
